COMPOUND: O=C(Nc1ccc(Cc2ccccc2)cc1)c1cc([N+](=O)[O-])ccc1O [compound 18]
melting point: 211.5 to 214.4 °C

COMPOUND: O=C(Nc1ccc(Oc2ncc(C(F)(F)F)cc2Cl)c(O)c1)c1cc([N+](=O)[O-])ccc1Cl [compound 126]
melting point: 194 to 197 °C

COMPOUND: Cc1ccc(NC(=O)c2cc([N+](=O)[O-])ccc2Cl)c(C)c1 [compound 26]
melting point: 206 °C

COMPOUND: CN(c1ccc(NC(=O)c2cc([N+](=O)[O-])ccc2Cl)cc1)c1ncc(C(F)(F)F)cc1Cl [compound 133]
melting point: 212 to 216 °C

COMPOUND: O=[N+]([O-])c1ccc(Cl)c(S(=O)(=O)Nc2ccc(Oc3ccccc3)cc2)c1 [compound 49]
melting point: 148 °C

COMPOUND: O=C(Nc1ccc(CSc2ccccc2)cc1)c1cc([N+](=O)[O-])ccc1Cl [compound 79]
melting point: 176 to 180 °C

COMPOUND: O=C(Nc1cc(Cl)c(Oc2ncc(C(F)(F)F)cc2Cl)c(Cl)c1)c1cc([N+](=O)[O-])ccc1Cl [compound 112]
melting point: 189 to 191 °C

COMPOUND: O=C(Nc1ccc(Oc2ccc(C(F)(F)F)cn2)c(Cl)c1)c1ccccc1Cl [compound 71]
melting point: 168 to 169 °C
